System: four Gardnerella strains (Gv_9, Gv_11, Gv_17, Gv_23)
Assay: CFU reduction averaged across the four Gardnerella strains, with activity ranks
Assay type: cell-based
Details: rank 1-91, based on the data of Table 5B
Endpoint: activity rank of all endolysins
One number for each entry.

Query: Fill blank: measured activity rank of all endolysins of the molecule H4B4: natural Gardnerella prophage endolysin from strain Gv5-1 (protein, EL4_strain_Gv5-1) MSKKGIDVSEWQGDIDFNAVKASGVEFVIIRAGYGIGCKDKWFEQNYRKAKTCGLDVGAYWYSYANSGFEAAEEAQSCVNMLSGKSFEYPVYFDLEEKSQLNRGRAFCDSLITSFCSKLETYGYYAGFYTSLSVVNNLVSAHVRDRYALWIAQWNTHCSYQGSYGLWQYSSSGSVPGVAGRVDMDYAYVDYPSIIKNVGLNGCKNGGSDQATRTSSIDEVAREVINGAWGNGNERKQRLTSAGYDYASVQNKVNKLLGVKAYRKSVDELAREVIRGTWGNGNERKQRLAQAGYDYDTVQKRVNELL is ____.
Reply: 76
